Test System: 5HT2C receptors (Homo sapiens, UniProt P28335)
Sequence (P28335 33-458): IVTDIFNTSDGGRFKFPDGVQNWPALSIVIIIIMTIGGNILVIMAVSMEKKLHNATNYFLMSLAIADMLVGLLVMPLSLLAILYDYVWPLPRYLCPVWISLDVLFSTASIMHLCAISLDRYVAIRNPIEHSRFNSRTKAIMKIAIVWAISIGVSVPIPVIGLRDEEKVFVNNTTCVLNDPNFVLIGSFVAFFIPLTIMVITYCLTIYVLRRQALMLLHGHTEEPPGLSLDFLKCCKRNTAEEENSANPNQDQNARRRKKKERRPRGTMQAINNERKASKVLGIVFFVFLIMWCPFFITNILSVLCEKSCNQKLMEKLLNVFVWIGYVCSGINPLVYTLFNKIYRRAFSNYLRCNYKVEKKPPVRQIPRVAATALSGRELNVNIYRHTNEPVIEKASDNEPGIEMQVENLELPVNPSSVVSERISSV
Test Name: Human 5-HT2C functional assay in CHO-K1 cells (calcium flux, FLIPR)
Type: cell-based
Set-up: expressed in transfected cells; host or cells: CHO-K1 cells
Condition Info: CHO-K1 cells over-expressing 5HT2C, calcium flux; read-out: EC50 (μM), 5-HT2c Agonist Activity
Reported Endpoint: EC50 (µM)

As a guide, the following entries are already answered.
>  <Compound>
Cc1cccc(-c2ccc3c(c2)N2CCNC[C@@H]2CCO3)c1 [Example 190]

>  <Test System>
5HT2C receptors (Homo sapiens, UniProt P28335)

>  <Output Unit>
µM

>  <EC50>
0.02

$$$$
>  <Compound>
Fc1ccccc1-c1ccc2c(c1)N1CCNC[C@@H]1CCO2 [Example 203]

>  <Test System>
5HT2C receptors (Homo sapiens, UniProt P28335)

>  <Output Unit>
µM

>  <EC50>
0.02

$$$$
>  <Compound>
Oc1ccc(-c2ccc3c(c2)N2CCNC[C@@H]2CCO3)cc1 [Example 202]

>  <Test System>
5HT2C receptors (Homo sapiens, UniProt P28335)

>  <Output Unit>
µM

>  <EC50>
0.005

$$$$

1: CCN1C(=O)CC2CN(C)CCN2c2ccc(Cl)cc21 (centres unmarked) [Example 78]
2: c1cc(-c2ccc3c(c2)N2CCNC[C@@H]2CCO3)co1 [Example 224]
Query block: Of 1 versus 2 , which is the one with smaller reported EC50? # answer = label of selected item
Result block: 2

Reference source: patent US8546377B2
